GI50 by entry:
System: COLO 205
assayText: NCI tumour cell line growth inhibition, 48 h
Activity calls are given as the source filed them. No stated cut-off is given here; in the data, active = GI50 up to about 1.1 µM and inactive = higher.

Field: example entries. Status: answers known.
CCOC(=O)C(=O)C(CCC(=O)c1ccc2ccccc2c1O)C(=O)OCC (stereo unspecified) = > 100 µM (inactive)
Cc1cccc(C(=O)O)c1C(=O)c1cccc2ccccc12 = > 100 µM (inactive)
O=C1CC[C@H]2CNC(=O)C[C@H]2C1 = > 100 µM (inactive)

### Prompt # lookup: GI50 of `COc1ccc(C)cc1NC(=S)C#N`
### Response > 100 µM (inactive)

### Prompt Repeat for the following compound: `FC(F)(F)c1nc2ccc(SSc3ccc4nc(C(F)(F)F)[nH]c4c3)cc2[nH]1`
### Response 33.9 µM (inactive)

====

System: DMS-114
assayText: NCI tumour cell line growth inhibition, 48 h
The source made the active and inactive calls. Cut-off read from the data, not from the text of the source: active = GI50 up to about 1.1 µM and inactive = higher.
Hi! Could you answer with just one of these? 1.0 (active), 0.0 (inactive)

Worked examples follow.
NN1C(=O)C(CCO)S/C1=N/N=C1/SC(CCO)C(=O)N1N (configuration not stated) = 0.0
CSc1nc(SC)c2cnn(CC3CO3)c2n1 (configuration not stated) = 0.0
CSc1ccc(Cc2cc(C(C)(C)C)cc(C(C)(C)C)c2O)cc1 = 0.0
COC(=O)/C(=N\Nc1nnc(C)n1N)C(C#N)c1ccc(Cl)cc1 (configuration not stated) = 0.0
C/C(=N\NC(=S)NC(CCC(=O)O)C(=O)O)c1cnccn1 (configuration not stated) = 0.0
C/C(=N/NC(=O)C[N+](C)(C)C)C(CN(C)C)C(=O)Nc1ccccc1 (configuration not stated) = 0.0
Cc1cc(N(CCC#N)CCC#N)ccc1/C=C1N=C(/C=C\c2ccccc2)N(NC(=O)CC(=O)Nc2ccccc2Cl)C\1=O = 0.0
Nc1c(S(=O)(=O)O)cc2cc(S(=O)(=O)O)ccc2c1/N=N/c1ccc(-c2ccc(/N=N/c3c(N)c(S(=O)(=O)O)cc4cc(S(=O)(=O)O)ccc34)c(S(=O)(=O)O)c2)cc1 = 0.0
O=C(NN1C(=O)C(Cl)C1c1ccc([N+](=O)[O-])cc1)c1ccccc1O (configuration not stated) = 0.0
NC(=O)NC1C(C(N)=O)N(Cc2ccccc2)C(=O)N1Cc1ccccc1 (configuration not stated) = 0.0

### Prompt Name the outcome recorded for N/N=C1\C(=O)N(Cc2ccccc2)C(=O)C1C(=O)NCc1ccccc1 (configuration not stated) in the assay.
### Response 0.0

### Prompt Repeat for the following compound: `O=C(O)CCc1nn2c(nc1=O)sc1ccc3ccccc3c12`
### Response 0.0

### Prompt Repeat for the following compound: CC(C)(C)C(=O)C1CC(=O)c2ccccc2C1=O (configuration not stated)
### Response 0.0

### Prompt Repeat for the following compound: COc1ccc(NC(=O)C(=O)C(C(=O)c2ccccc2)C2OC(=O)c3ccccc32)c([N+](=O)[O-])c1 (configuration not stated)
### Response 0.0

### Prompt Repeat for the following compound: CC(C)Cc1ccc(C(C)/C=C2\CCC(CN3CCCCC3)C2=O)cc1 (configuration not stated)
### Response 0.0

### Prompt Repeat for the following compound: `c1ccc(C(c2ccccc2)[P+](c2ccccc2)(c2ccccc2)c2ccccc2)cc1`
### Response 1.0

### Prompt Repeat for the following compound: CSc1nc(NC2OC(COC(C)=O)C(OC(C)=O)C(OC(C)=O)C2OC(C)=O)c(/N=C\C=N/c2c(NC3OC(COC(C)=O)C(OC(C)=O)C(OC(C)=O)C3OC(C)=O)nc(SC)n(C)c2=O)c(=O)n1C (configuration not stated)
### Response 0.0

Ref: ChEMBL document CHEMBL1201862
